Data credit: PubChem BioAssay AID504810

Biological target: Thyrotropin receptor (Homo sapiens) (UniProt P16473)
Sequence (P16473 whole entry, looked up): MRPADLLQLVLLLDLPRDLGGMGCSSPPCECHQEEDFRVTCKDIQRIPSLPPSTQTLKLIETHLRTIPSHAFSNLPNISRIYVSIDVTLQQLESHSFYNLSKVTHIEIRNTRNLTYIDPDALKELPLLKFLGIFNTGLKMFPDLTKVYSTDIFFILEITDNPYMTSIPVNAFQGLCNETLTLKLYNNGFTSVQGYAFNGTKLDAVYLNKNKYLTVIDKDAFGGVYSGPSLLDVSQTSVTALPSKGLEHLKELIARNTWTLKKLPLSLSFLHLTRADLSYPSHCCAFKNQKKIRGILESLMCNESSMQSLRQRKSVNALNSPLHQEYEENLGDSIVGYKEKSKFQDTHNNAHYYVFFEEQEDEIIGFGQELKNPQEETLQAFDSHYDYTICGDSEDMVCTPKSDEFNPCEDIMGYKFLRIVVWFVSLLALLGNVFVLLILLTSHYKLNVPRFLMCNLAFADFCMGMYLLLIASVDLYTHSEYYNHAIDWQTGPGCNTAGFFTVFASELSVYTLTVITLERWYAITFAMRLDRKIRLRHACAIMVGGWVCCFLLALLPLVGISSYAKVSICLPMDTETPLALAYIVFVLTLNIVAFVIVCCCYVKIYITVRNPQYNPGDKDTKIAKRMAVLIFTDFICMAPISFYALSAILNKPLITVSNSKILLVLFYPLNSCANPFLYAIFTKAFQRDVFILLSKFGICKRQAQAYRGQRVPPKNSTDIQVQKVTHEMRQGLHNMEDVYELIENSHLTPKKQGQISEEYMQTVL
Assay: Antagonists of the Thyroid Stimulating Hormone Receptor: HTS campaign; further: on the % scale 0 is the no-effect control and ±100 the full control effect
Details: TSHR-expressing cells, TSH-stimulated cAMP HTRF, 2 h; at 11.5 µM
Among all 330,000 compounds or so, about 670 (0.2%) were called active.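 How the source made its calls: active means activity change below a set negative limit, meaning inhibition stronger than a set level (cut at about -70% in these data); inconclusive means activity change between two set negative limits; inactive means the rest.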 The sample as a whole holds a higher share of actives than the screen did.
// one of active, inactive, no free text

Here's what some known entries look like.
                                   compound  class_assignment
0  NC(=O)COC(=O)c1cc(S(=O)(=O)N2CCN(c3ccccc3)CC2)ccc1Cl          inactive
1  CN(CC(=O)Nc1cccc(F)c1)C(=O)C1CC(=O)N(CCc2ccccc2)C1 (stereo not given)          inactive
2   Cc1cc2occ(CC(=O)NNC(=O)c3ccccc3F)c2cc1C          inactive
3  CCOC(=O)C1(Cc2ccccc2C)CCCN(C(=O)CN2C(=O)CSC2=O)C1 (stereo not given)          inactive
4            CC/C(=N/Nc1ccccc1)c1cnnc(SC)n1          inactive
5  COc1ccc(CC(=O)N/N=C/c2cc([N+](=O)[O-])cc(Br)c2O)cc1          inactive
6  CC(C)C[C@H](NC(=O)[C@H](O)[C@H](N)Cc1ccccc1)C(=O)O          inactive
7  O=C(Nc1ccc(-c2cscn2)cc1)C1CCCN(Cc2ccc(CO)o2)C1 (stereo not given)          inactive

Now look at this one.
## Input How was "COc1ccc(CNC(=O)c2nnn(CC(=O)Nc3cc(C)cc(C)c3)c2N)cc1" classified in this test?
## Output inactive

----------
Biological target: Thyrotropin receptor (Homo sapiens) (UniProt P16473)
Test: Antagonists of the Thyroid Stimulating Hormone Receptor: HTS campaign; further: on the % scale 0 is the no-effect control and ±100 the full control effect
Conditions: TSHR-expressing cells, TSH-stimulated cAMP HTRF, 2 h; at 11.5 µM; stronger effect = lower value
Excerpt: The thyroid-stimulating hormone receptor (TSHR) is a member of the 7 trans-membrane-spanning receptor (7TMR) family of cell surface receptors. TSHR-mediated hyperthyroidism is important in thyroid pathology. […] 1. […] The result is obtained by using a ViewLux read-out with HTRF settings.
The whole screen tested about 330,000 compounds, of which about 670 (0.2%) were called active. The sample as a whole holds a higher share of actives than the screen did.
METRIC_NAME: activity change, negative = inhibition (%)
Numbers only, in %.

Quick batch: activity change, negative = inhibition for everything below.
1. NC(=O)c1ccc(Nc2ccc3nonc3c2[N+](=O)[O-])cc1
2. CN(C)c1ccc(CNC(=O)CN2C(=O)COc3ccc(S(=O)(=O)N4CCCC4)cc32)cc1

## Output
27.6
-5.17

----------
Molecular target: Thyrotropin receptor (Homo sapiens) (UniProt P16473)
Assay: Antagonists of the Thyroid Stimulating Hormone Receptor: HTS campaign; further: on the % scale 0 is the no-effect control and ±100 the full control effect
Details: TSHR-expressing cells, TSH-stimulated cAMP HTRF, 2 h; at 11.5 µM; stronger effect = lower value
From the text: The thyroid-stimulating hormone receptor (TSHR) is a member of the 7 trans-membrane-spanning receptor (7TMR) family of cell surface receptors. TSHR-mediated hyperthyroidism is important in thyroid pathology. […] 1. […] The result is obtained by using a ViewLux read-out with HTRF settings.
Among all 330,000 compounds or so, about 670 (0.2%) were called active. For the sample, actives were picked, then their nearest neighbours and some compounds at random.
METRIC_NAME: activity change, negative = inhibition

Would you please look over these solved cases?
                                   molecule                       experimental_target                             metric_name     readout_value
0  CSc1cccc(NC(=O)CN2C(=O)COc3ccc(S(=O)(=O)N4CCOCC4)cc32)c1  Thyrotropin receptor (Homo sapiens) (UniProt P16473)  activity change, negative = inhibition    -134% (active)
1  Nc1ncnc2c1c(I)cn2[C@@H]1C[C@H](N)[C@@H](O)[C@H]1O  Thyrotropin receptor (Homo sapiens) (UniProt P16473)  activity change, negative = inhibition   -18% (inactive)
2  CCOC(=O)NN1C(=O)c2ccccc2NC1c1ccccc1O (stereo unspecified)  Thyrotropin receptor (Homo sapiens) (UniProt P16473)  activity change, negative = inhibition  8.06% (inactive)

# map each molecule to its activity change, negative = inhibition
1. Cc1ccc(C(=O)Nc2ncccc2C)cc1S(=O)(=O)N1CCOCC1
2. N#Cc1c(Cl)nc(-c2cccnc2)nc1-c1ccccc1
3. Cc1c(NC(=O)Nc2ccccc2Cl)sc(=S)n1C
4. Cc1cccc(N2CCC(NCc3c(C(=O)N4CCCCC4)nc4c(C)cccn34)CC2)c1

## Output
1: -1.78% (inactive); 2: 3.65% (inactive); 3: 46.2% (inactive); 4: 4.5% (inactive)

For each entry beneath this line, provide reported activity change, negative = inhibition.
1. O=C1NC2(CCCCCC2)C(=O)N1CCS(=O)(=O)Oc1ccccc1
2. C=CC1(C)CC(=O)C2(O)C(C)(O1)C(OC(C)=O)C(O)C1C(C)(C)CCC(O)C12C (stereo unspecified)
3. COc1ccc(-n2cnnc2SCC(=O)Nc2cccc([N+](=O)[O-])c2)cc1
4. Cc1sc2ncn(CC(=O)NCCCC(=O)N3CCN(c4ccccc4F)CC3)c(=O)c2c1C
5. CCCN(c1ccc(C(C)C)cc1)S(=O)(=O)c1c(C)[nH]c(=O)[nH]c1=O
6. C[C@H](NC(=O)c1nc[nH]c1C(=O)NCC(=O)OC(C)(C)C)C(=O)OCc1ccccc1

## Output
-2.81% (inactive)
107% (inactive)
-5.22% (inactive)
3.65% (inactive)
-12.7% (inactive)
-7.53% (inactive)

----------
Target: Thyrotropin receptor (Homo sapiens) (UniProt P16473)
Assay: Antagonists of the Thyroid Stimulating Hormone Receptor: HTS campaign; further: on the % scale 0 is the no-effect control and ±100 the full control effect
Details: TSHR-expressing cells, TSH-stimulated cAMP HTRF, 2 h; at 11.5 µM; stronger effect = lower value
Text: The thyroid-stimulating hormone receptor (TSHR) is a member of the 7 trans-membrane-spanning receptor (7TMR) family of cell surface receptors. TSHR-mediated hyperthyroidism is important in thyroid pathology. […] 1. […] The result is obtained by using a ViewLux read-out with HTRF settings.
Out of some 330,000 compounds screened, about 670 (0.2%) were called active. Only a selection was taken, and actives are over-represented in it overall.
METRIC_NAME: activity change, negative = inhibition (%)
One number for each entry, in %.

In [3]: df
Out[3]:
                                   compound                       experimental_target  readout_value
0  C=CCn1c(SCc2ccc(C(=O)NCCO)cc2)nc2ccccc2c1=O  Thyrotropin receptor (Homo sapiens) (UniProt P16473)          -4.95
1  CCOC(=O)c1ccccc1NS(=O)(=O)c1c(C)nc2sccn2c1=O  Thyrotropin receptor (Homo sapiens) (UniProt P16473)           3.11
2  Cn1c2cc(B(O)O)sc2c2cnn(Cc3ccccc3F)c(=O)c21  Thyrotropin receptor (Homo sapiens) (UniProt P16473)          -27.6
3  Cc1csc(NC(=O)CSc2nc(=O)n(CCCN(C)C)c3c2CCC3)n1  Thyrotropin receptor (Homo sapiens) (UniProt P16473)          -6.64
4  CCOCCCNC(=O)C(NC(=O)c1ccccc1O)c1ccccc1 (stereo unspecified)  Thyrotropin receptor (Homo sapiens) (UniProt P16473)           1.46
5                  Cc1cnc(NC(=O)c2ccccn2)s1  Thyrotropin receptor (Homo sapiens) (UniProt P16473)           6.51
6  CCOCCCNC(=O)C(NC(=O)c1ccc(=O)[nH]c1)c1ccc(Cl)cc1 (stereo unspecified)  Thyrotropin receptor (Homo sapiens) (UniProt P16473)          -71.3
7  CC(=O)Oc1ccccc1C(=O)Nc1ncc([N+](=O)[O-])s1  Thyrotropin receptor (Homo sapiens) (UniProt P16473)          -80.5

// for each compound in input: emit activity change, negative = inhibition
1. O=C(Cc1c(F)cccc1Cl)Nc1ncc([N+](=O)[O-])s1
2. Cc1nc2ccccc2c(=O)n1NC(=O)c1ccc(Cl)c([N+](=O)[O-])c1
3. O=C(Nn1c(SCc2ccc([N+](=O)[O-])cc2)nc2ccccc2c1=O)c1ccc(F)cc1

## Output
-13.2
-24.1
-74.2

----------
Exercise: state measured activity change, negative = inhibition for each of the compounds provided.
Molecular target: Thyrotropin receptor (Homo sapiens) (UniProt P16473)
Assay: Antagonists of the Thyroid Stimulating Hormone Receptor: HTS campaign; further: on the % scale 0 is the no-effect control and ±100 the full control effect
Settings: TSHR-expressing cells, TSH-stimulated cAMP HTRF, 2 h; at 11.5 µM; stronger effect = lower value
In all, about 330,000 compounds went through this assay and about 670 (0.2%) were called active. What follows is part of a selection rich in actives, with near analogues and random picks from the rest.
Numbers only, in %.

As a guide, the following entries are already answered.
>>> print(df.to_string())
                                   molecule                             metric_name  unit_info  readout_value
0  Cc1cccc(NC(=O)c2ccc(S(=O)(=O)N(C)c3ccccc3)cc2)n1  activity change, negative = inhibition          %          -19.5
1  O=c1ccc(-c2ccc(S(=O)(=O)Nc3ccccc3)o2)n[nH]1  activity change, negative = inhibition          %           14.7
2  CSc1ccc(CNC(=O)c2ccc(NC(=O)C3=CSCCO3)cc2)cc1  activity change, negative = inhibition          %           17.8
3  O=C(Nc1ccc(C(=O)NCc2ccccc2Cl)cc1)C1=CSCCO1  activity change, negative = inhibition          %           -135

Items follow; give activity change, negative = inhibition for each.
1. Nc1ccc(Nc2cc(O)c3ncccc3c2)cc1
2. CS(=O)(=O)N(CC(=O)Nc1ccc(Cl)c(Cl)c1)C1CCCCC1
3. CN(c1ccccc1)S(=O)(=O)c1cc(C(=O)OCC(=O)N2CCN(C(=O)c3ccco3)CC2)ccc1Cl
4. O=C(CC(O)(C(F)(F)F)C(F)(F)F)Nc1ccc(Cl)c(Cl)c1
5. CCOc1ccc(N(CC(=O)NCCc2ccc(F)cc2)S(=O)(=O)c2ccccc2)cc1
6. Cc1ccc(SCC(=O)c2cc(C)c(OC(=S)N(C)C)c(C)c2)cc1

## Output
1: -16; 2: 15.8; 3: -10.1; 4: -74.6; 5: -7.25; 6: -25
